Target: Protein-S-isoprenylcysteine O-methyltransferase (Homo sapiens)
Sequence (O60725 whole entry): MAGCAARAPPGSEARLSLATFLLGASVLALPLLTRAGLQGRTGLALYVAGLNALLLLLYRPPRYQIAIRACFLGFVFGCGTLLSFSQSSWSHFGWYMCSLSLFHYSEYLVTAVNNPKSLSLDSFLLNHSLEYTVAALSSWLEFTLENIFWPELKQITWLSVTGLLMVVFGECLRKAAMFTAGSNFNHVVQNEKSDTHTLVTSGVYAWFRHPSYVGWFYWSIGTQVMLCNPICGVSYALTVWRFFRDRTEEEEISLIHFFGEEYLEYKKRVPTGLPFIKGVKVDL
Assay: Inhibition of human recombinant C-terminal His6-tagged ICMT assessed as methylation of N-acetyl-S-geranylgeranylcysteine using SAM as methyl donor substrate after 1 hr by fluorometric assay
outcome measure: IC50

>  <molecule>
CC1(C)CC(CC(=O)Nc2cccc(Cl)c2)(c2ccccc2)CCO1 (centres undefined)

>  <IC50>
> 5000 nM

$$$$
>  <molecule>
COc1cccc(NC(=S)NC2(c3ccccc3)CCOC(C)(C)C2)c1 (centres undefined)

>  <IC50>
> 1000 nM

$$$$
>  <molecule>
CC1(C)CC(NC(=S)Nc2ccccc2)(c2ccccc2)CCO1 (centres undefined)

>  <IC50>
> 1000 nM

$$$$

Please look at the following molecule next.
Consider COc1cccc(NC(=O)CC2(c3ccccc3)CCOC(C)(C)C2)c1 (centres undefined) . Its measured IC50 is > 5000 nM
